Assay: Lipophilicity, log D of the compound
Format: physicochemical
Conditions: octanol/water
Quantity name: logD
# answer = number (no unit)

O=C(O)c1cc(C2=C(c3cc(Cl)ccc3OCc3ccccc3)CCC2)ncn1
1.2
O=C(O)c1cccc(C2=C(c3cc(Cl)ccc3OCc3ccc(F)cc3F)CCC2)n1
2.6
O=C(O)c1cncc(C2=C(c3cc(C(F)(F)F)ccc3OCc3ccccc3)CCC2)c1
2.7

[Q] Dear colleague, I am looking for the recorded logD of the following compound: `O=C(O)c1cncc(C2=C(c3cc(Cl)ccc3OCc3ccc(F)cc3F)CCC2)n1`
[A] 1.6

[Q] Dear colleague, I am looking for the recorded logD of the following compound: `O=C(O)c1ccnc(C2=C(c3cc(Cl)ccc3OCc3ccccc3)CCC2)n1`
[A] 0.8

[Q] Dear colleague, I am looking for the recorded logD of the following compound: `O=C(O)c1cnnc(C2=C(c3cc(Cl)ccc3OCc3ccc(F)cc3F)CCC2)c1`
[A] 1.2

[Q] Dear colleague, I am looking for the recorded logD of the following compound: `O=C(O)c1ccnc(C2=C(c3cc(Br)ccc3OCc3ccc(F)cc3)CCC2)c1`
[A] 2.7

[Q] Dear colleague, I am looking for the recorded logD of the following compound: `Cc1ncc(C2=C(c3cc(Cl)ccc3OCc3ccc(F)cc3)CCC2)cc1C(=O)O`
[A] 2.7

###

Assay: Half life in rat at 1 mg/kg, iv
Type: ADME, organism-based
Design: dose 1 mg/kg, route intravenous
Conditions: in vivo
Listed next: entries and their corresponding half-life.
Lab book: enter the figure in min, no units written.

// known answers, use as guide
O=C(O)c1cccc(C2=C(c3cc(Br)ccc3OCc3ccc(F)cc3F)CCC2)c1
12
O=C(O)c1cccc(C2=C(c3cc(Br)ccc3OCc3ccccc3)CCC2)c1
18

Turning to the following compound.
[Q] Dear colleague, I am looking for the recorded half-life of the following compound: `O=C(O)c1cccc(C2=C(c3cc(Br)ccc3OCc3ccc(F)cc3)CCC2)c1`
[A] 12

###

Listed next: entries and their corresponding pIC50.
Target protein (sequence): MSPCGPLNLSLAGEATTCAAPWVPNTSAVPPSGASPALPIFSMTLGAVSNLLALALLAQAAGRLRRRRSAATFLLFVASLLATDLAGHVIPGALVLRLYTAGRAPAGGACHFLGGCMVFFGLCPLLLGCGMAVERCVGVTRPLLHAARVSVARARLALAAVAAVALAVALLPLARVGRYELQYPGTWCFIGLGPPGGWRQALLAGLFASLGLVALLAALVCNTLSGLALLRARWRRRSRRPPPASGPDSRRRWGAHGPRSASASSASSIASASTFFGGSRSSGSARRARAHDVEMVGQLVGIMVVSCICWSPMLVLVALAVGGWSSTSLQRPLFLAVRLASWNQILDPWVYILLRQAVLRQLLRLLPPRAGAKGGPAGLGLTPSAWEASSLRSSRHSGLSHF
Please note pIC50 is a logarithmic value: minus log10 of concentration in mol/L. Answer with that number alone.

// known answers, use as guide
O=C(O)c1cccc(C2=C(c3ccccc3OCc3ccc(Cl)cc3F)CCC2)c1
7.30
O=C(O)c1cc(C2=C(c3cc(Cl)ccc3OCc3ccccc3)CCC2)cnn1
7.40
CS(=O)(=O)c1ccc(OCc2ccc(F)cc2F)c(C2=C(c3cccc(C(=O)O)c3)CCC2)c1
7.80

[Q] Dear colleague, I am looking for the recorded pIC50 of the following molecule: `N#Cc1ccc(OCc2ccc(F)cc2F)c(C2=C(c3cccc(C(=O)O)c3)CCC2)c1`
[A] 7.40

[Q] Dear colleague, I am looking for the recorded pIC50 of the following molecule: `O=C(O)c1cccc(C2=C(c3ccccc3OCc3ccc(F)cc3F)CCC2)c1`
[A] 7.60
